# Tested on: Calu-6
# experimental_protocol: Cytotoxicity against human Calu6 cells
# Assay type: functional, cell-based
attribute_measured: IC50 (µM)
Unit µM implied. Number only.

Entry "O=C(O)c1cc(O)c(O)c(O)c1" , IC50 reported as 10

###

# Test system: K562
# experimental_protocol: Cytotoxicity against human imatinib-resistant K562 cells
# Type: functional, cell-based
attribute_measured: IC50 (µM)
Unit µM implied. Number only.

Entry "O=C(O)c1cc(O)c(O)c(O)c1" , IC50 reported as 4.75

###

# experimental_protocol: Cytotoxicity against mouse WEHI231 cells
# Assay type: functional, cell-based
attribute_measured: IC50 (µM)
Unit µM implied. Number only.

CCCCCCCCOC(=O)c1cc(O)c(O)c(O)c1 [OCTYL_GALLATE]
1.5
O=C(O)c1cc(O)c(O)c(O)c1
40
CCCOC(=O)c1cc(O)c(O)c(O)c1 [PROPYL GALLATE]
12

Entry CCCCCCCCCCCCOC(=O)c1cc(O)c(O)c(O)c1 [DODECYL GALLATE] , IC50 reported as 1
